# credit: ChEMBL document CHEMBL1201862

- Tested on: HT-29
- EXPERIMENT SUMMARY: NCI tumour cell line growth inhibition, 48 h
Calls of active or inactive are those of the source. Cut-off read from the data, not from the text of the source: active = GI50 up to about 1.1 µM and inactive = higher.
Form field: GI50 (one value per entry).

{"COMPOUND": "Cc1c2c(ccc3ccccc32)c[n+]2ccccc12", "GI50": "49.7 µM (inactive)"}
{"COMPOUND": "N=c1c2ccccc2sc2nc3ccccc3n12", "GI50": "> 100 µM (inactive)"}
{"COMPOUND": "CCOC(=O)CCC(NC(=O)Cc1ccc(Oc2nc3ccccc3nc2-c2ccccc2)cc1)C(=O)OCC (configuration not stated)", "GI50": "> 100 µM (inactive)"}
{"COMPOUND": "O=[N+]([O-])c1ccc2c3c1[C@H]1O[C@H]1c1cccc(c1-3)[C@@H]1O[C@H]21", "GI50": "2.01 µM (inactive)"}
{"COMPOUND": "CC1=C[C@@H]2[C@@H](CC(CO)=C[C@H]3[C@@H]4C(C)(C)[C@]4(OCC(C)C)[C@H](OCC(C)C)[C@@H](C)[C@]23O)C1=O", "GI50": "1.21 µM (inactive)"}
{"COMPOUND": "O=C1CCC2=C(CCC2)N1CCc1ccc2c(c1)OCO2", "GI50": "92 µM (inactive)"}
{"COMPOUND": "CC(C)(C)[Si](C)(C)OCCC1CC2(S(=O)(=O)C3=CC=C=C=C3)ON1CC2S(=O)(=O)c1ccccc1 (configuration not stated)", "GI50": "> 10 µM (inactive)"}
{"COMPOUND": "O=c1[nH]c(=O)n(C2CC(O)C(CO)O2)cc1C1=NC1 (configuration not stated)", "GI50": "> 100 µM (inactive)"}
{"COMPOUND": "COC(=O)CCC(=O)NC1=C(Nc2ccc(OC)cc2)C(=O)c2ccccc2C1=O", "GI50": "12.6 µM (inactive)"}
{"COMPOUND": "CCOC(=O)C(=O)/C(=C/NC(=S)c1ccncc1)C(=O)OCC", "GI50": "> 100 µM (inactive)"}
{"COMPOUND": "Cc1ccc(NC(=O)CCc2cc(C(C)(C)C)nc(S)n2)cc1C", "GI50": "> 100 µM (inactive)"}
{"COMPOUND": "CNC1=Nc2ccccc2C(=O)N2CSCC12 (configuration not stated)", "GI50": "> 100 µM (inactive)"}
{"COMPOUND": "CCNC(=O)/C(=C/c1ccc(OC)cc1)c1cc(OC)c(OC)c(OC)c1", "GI50": "3.41 µM (inactive)"}
{"COMPOUND": "Cn1c(=O)c2c(nc3sc4ccccc4c(=O)n32)n(C)c1=O", "GI50": "> 100 µM (inactive)"}
{"COMPOUND": "Cc1ccccc1Cn1nc2ccccc2cc1=O", "GI50": "> 100 µM (inactive)"}
{"COMPOUND": "CC1=C(C(=O)NNC(=O)Cc2ccccc2)CC(C(=O)NNC(=O)Cc2ccccc2)=C(C)N1", "GI50": "> 100 µM (inactive)"}
{"COMPOUND": "O=C(O)Cc1c(O)ccc2ccccc12", "GI50": "> 100 µM (inactive)"}
{"COMPOUND": "CC(C)(C)OC(=O)NC1CC2(C=C(Br)C(=O)C(Br)=C2)OC1=O (configuration not stated)", "GI50": "5.74 µM (inactive)"}
{"COMPOUND": "c1cc(-c2ccc(Oc3ccc(-c4ccncc4)cc3)cc2)ccn1", "GI50": "3.7 µM (inactive)"}
{"COMPOUND": "CCC(C)(O)c1cn(-c2ccc(S(=O)(=O)O)cc2)nn1 (configuration not stated)", "GI50": "> 100 µM (inactive)"}
{"COMPOUND": "CN(/N=C/C=N/N(C)C1=NCCN1)C1=NCCN1", "GI50": "> 100 µM (inactive)"}
{"COMPOUND": "CSC1=C(C#N)C(=O)N(c2ccc(Cl)cc2)C(=O)C1C#N (configuration not stated)", "GI50": "> 100 µM (inactive)"}

====

- Test system: MOLT-4
- EXPERIMENT SUMMARY: NCI tumour cell line growth inhibition, 48 h
Active and inactive are the calls of the source. No stated cut-off is given here; in the data, active = GI50 up to about 1.1 µM and inactive = higher.
Outcomes: active, inactive

{"COMPOUND": "Cc1c(-c2ccccc2)oc(=O)c2ccccc12", "ANSWER LABEL": "inactive"}
{"COMPOUND": "O=C1C(c2ccccc2)=[N+]([O-])c2ccccc21", "ANSWER LABEL": "inactive"}
{"COMPOUND": "O=C1C[C@@H]2[C@@H](C=CC23CCCC3)N1O", "ANSWER LABEL": "inactive"}
{"COMPOUND": "CCSC1=N/C(=C\\c2ccc(N(C)C)cc2)C(Cl)=N1", "ANSWER LABEL": "inactive"}
{"COMPOUND": "Fc1cccc2c1cc1ccc3cccc4ccc2c1c34", "ANSWER LABEL": "inactive"}
{"COMPOUND": "NS(=O)(=O)c1nc(S(=O)(=O)O)c2[nH]cnc2n1", "ANSWER LABEL": "inactive"}
{"COMPOUND": "CO[C@H](C)[C@](O)(C(=O)OCC1=CCN2CC[C@@H](O)[C@H]12)C(C)C", "ANSWER LABEL": "inactive"}
{"COMPOUND": "Cc1nnc2sc(-c3ccc(-c4ccccc4Cl)o3)nn12", "ANSWER LABEL": "inactive"}
{"COMPOUND": "CC1=C[C@@H]2[C@@H](CC(CO)=C[C@H]3[C@@H]4C(C)(C)[C@]4(OCC(C)C)[C@H](OCC(C)C)[C@@H](C)[C@]23O)C1=O", "ANSWER LABEL": "active"}
{"COMPOUND": "Cc1ccc(S(=O)(=O)OC2CCN(C)CC2)cc1", "ANSWER LABEL": "inactive"}
{"COMPOUND": "O=C1CCSc2nc(-c3ccc4c(c3)OCO4)nn21", "ANSWER LABEL": "inactive"}
{"COMPOUND": "Cc1ccc(I)cc1N=C=S", "ANSWER LABEL": "inactive"}
{"COMPOUND": "O=S(=O)(c1ccccc1)n1c(C(O)c2ccncc2)cc2ccccc21 (configuration not stated)", "ANSWER LABEL": "inactive"}
{"COMPOUND": "O=C(O)Cc1c(O)ccc2ccccc12", "ANSWER LABEL": "inactive"}
{"COMPOUND": "COc1ccccc1C(=O)NO", "ANSWER LABEL": "inactive"}
{"COMPOUND": "C[N+](C)(C)CC1CCCCC1=O (configuration not stated)", "ANSWER LABEL": "inactive"}
{"COMPOUND": "CC(=O)Oc1cc(S(=O)(=O)Nc2nc(N)n[nH]2)c(S)cc1Cl", "ANSWER LABEL": "inactive"}
